System: 883617-216-R-J1-PDC complex spheroid viability
assay: Anticancer human tumor 883617-216-R-J1-PDC patient-derived bladder carcinoma cell line growth inhibition [POLQ]
condition.summary: second compound 3.16 µM; first compound 0.316 µM; stronger effect = lower value
// viability, T/C lookup, one value per entry
// note: answer is a bare numeric in %

Reference set (2 entries):
1) CCc1cc2c(N3CCc4c(cc(Cn5ccnc5)cc4-c4cn(C)nc4C(F)(F)F)C3=O)ccnc2c(OC)n1 + Cc1cccc(N(C)C(=O)C2C(O)CCN2c2nc(C)cc(C(F)(F)F)c2C#N)c1	87.7
2) CC(C)n1c(=O)n(C)c2cnc3cc(F)c(-c4ccc(OCCCN5CCCCC5)nc4)cc3c21 + Nc1ccc(C#CCN(C(=O)Cc2ncc(C(F)(F)F)cc2C(F)(F)F)c2ccc(F)cc2)nn1	104

Lab note: next compound to report on.
Give its viability, T/C value. Item: COc1ccc([C@@H](O)c2cc(-c3ncnc4cc(N5CCOCC5)ccc34)c(F)cc2Cl)nn1 + COC1C(OC(N)=O)C(O)C(Oc2ccc3c(O)c(NC(=O)c4ccc(O)c(CC=C(C)C)c4)c(=O)oc3c2C)OC1(C)C
78.3

* * *

Listed below: viability, T/C values for each entry.
Tested on: 883617-216-R-J1-PDC complex spheroid viability
assay: Anticancer human tumor 883617-216-R-J1-PDC cell line growth inhibition [POLQ];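 note: spheroids exposed to compounds for seven days before readout; 100% = DMSO vehicle control viability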
condition.summary: second compound 0.0316 µM; first compound 0.0316 µM; stronger effect = lower value
Lab book: enter the figure in %, no units written.

1) CCCS(=O)(=O)Nc1ccc(F)c(C(=O)c2c[nH]c3ncc(-c4ccc(Cl)cc4)cc23)c1F + Cc1cccc(N(C)C(=O)C2C(O)CCN2c2nc(C)cc(C(F)(F)F)c2C#N)c1	89.5
2) COc1cccc2c1C(=O)c1c(O)c3c(c(O)c1C2=O)CC(O)(C(=O)CO)CC3OC1CC(N)C(O)C(C)O1 (stereo not given) + Nc1ccc(C#CCN(C(=O)Cc2ncc(C(F)(F)F)cc2C(F)(F)F)c2ccc(F)cc2)nn1	76.5
3) CC(C)n1c(=O)n(C)c2cnc3cc(F)c(-c4ccc(OCCCN5CCCCC5)nc4)cc3c21 + Nc1ccc(C#CCN(C(=O)Cc2ncc(C(F)(F)F)cc2C(F)(F)F)c2ccc(F)cc2)nn1	95.3
4) COc1cccc(OCCCN)c1-c1cc(Nc2cnc(C#N)cn2)n[nH]1 + Nc1ccc(C#CCN(C(=O)Cc2ncc(C(F)(F)F)cc2C(F)(F)F)c2ccc(F)cc2)nn1	67
5) O=C(Nc1ccc(O)c(NS(=O)(=O)c2ccc(F)cc2)c1)c1ccc(-c2ccccc2)cc1 + COC1C(OC(N)=O)C(O)C(Oc2ccc3c(O)c(NC(=O)c4ccc(O)c(CC=C(C)C)c4)c(=O)oc3c2C)OC1(C)C	95.1

Form field: viability, T/C recorded for CCc1cc2c(N3CCc4c(cc(Cn5ccnc5)cc4-c4cn(C)nc4C(F)(F)F)C3=O)cc(C)nc2c(OC)n1 + Nc1ccc(C#CCN(C(=O)Cc2ncc(C(F)(F)F)cc2C(F)(F)F)c2ccc(F)cc2)nn1 with 883617-216-R-J1-PDC complex spheroid viability (enter value)
89.2

O=C(Nc1ccc(O)c(NS(=O)(=O)c2ccc(F)cc2)c1)c1ccc(-c2ccccc2)cc1 + Nc1ccc(C#CCN(C(=O)Cc2ncc(C(F)(F)F)cc2C(F)(F)F)c2ccc(F)cc2)nn1 ?
91.5

How about this compound: COc1cc(C2c3cc4c(cc3C(OC3OC5COC(C)OC5C(O)C3O)C3COC(=O)C23)OCO4)cc(OC)c1O (stereo not given) + Cc1cccc(N(C)C(=O)C2C(O)CCN2c2nc(C)cc(C(F)(F)F)c2C#N)c1
98.5

Next record, please: Cn1ncnc1[C@H]1c2n[nH]c(=O)c3cc(F)cc(c23)N[C@@H]1c1ccc(F)cc1 + Cc1cccc(N(C)C(=O)C2C(O)CCN2c2nc(C)cc(C(F)(F)F)c2C#N)c1
74.4

And the next one, C#Cc1c(F)ccc2cc(O)cc(-c3ncc4c(N5CC6CCC(C5)N6)nc(OCC56CCCN5CC(F)C6)nc4c3F)c12 (stereo not given) + Cc1cccc(N(C)C(=O)C2C(O)CCN2c2nc(C)cc(C(F)(F)F)c2C#N)c1 ?
98.1

* * *

Tested on: 883617-216-R-J1-PDC complex spheroid viability
assay: Anticancer human tumor 883617-216-R-J1-PDC cell line growth inhibition [POLQ];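 note: spheroids exposed to compounds for seven days before readout; 100% = DMSO vehicle control viability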
condition.summary: second compound 10 µM; first compound 0.0316 µM; stronger effect = lower value
Catalogue of viability, T/C values
Expressed in %, but write only the number.

Reference set (2 entries):
1. CC(C)n1c(=O)n(C)c2cnc3cc(F)c(-c4ccc(OCCCN5CCCCC5)nc4)cc3c21 + Cc1cccc(N(C)C(=O)C2C(O)CCN2c2nc(C)cc(C(F)(F)F)c2C#N)c1	108
2. COc1cccc(OCCCN)c1-c1cc(Nc2cnc(C#N)cn2)n[nH]1 + Nc1ccc(C#CCN(C(=O)Cc2ncc(C(F)(F)F)cc2C(F)(F)F)c2ccc(F)cc2)nn1	63.6

The record that follows has no viability, T/C shown yet.
Would you mind telling me what viability, T/C value was observed for O=C(Nc1ccc(O)c(NS(=O)(=O)c2ccc(F)cc2)c1)c1ccc(-c2ccccc2)cc1 + COC1C(OC(N)=O)C(O)C(Oc2ccc3c(O)c(NC(=O)c4ccc(O)c(CC=C(C)C)c4)c(=O)oc3c2C)OC1(C)C ?
103

* * *

Test system: 883617-216-R-J1-PDC complex spheroid viability
assay: Anticancer human tumor 883617-216-R-J1-PDC cell line growth inhibition [POLQ];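 note: spheroids exposed to compounds for seven days before readout; 100% = DMSO vehicle control viability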
condition.summary: second compound 0.316 µM; first compound 10 µM; stronger effect = lower value
measurement.type: viability, T/C (%)
Kindly provide the numeric value in % only, without the unit symbol.

1) COc1cc2cc(C(=O)CCC(=O)O)sc2cc1OC + Nc1ccc(C#CCN(C(=O)Cc2ncc(C(F)(F)F)cc2C(F)(F)F)c2ccc(F)cc2)nn1	106

Item O=C(Nc1ccc(O)c(NS(=O)(=O)c2ccc(F)cc2)c1)c1ccc(-c2ccccc2)cc1 + Cc1cccc(N(C)C(=O)C2C(O)CCN2c2nc(C)cc(C(F)(F)F)c2C#N)c1 has what recorded viability, T/C?
68.2

Similarly, Nc1ccn(C2OC(CO)C(O)C2(F)F)c(=O)n1 (configuration not stated) + COC1C(OC(N)=O)C(O)C(Oc2ccc3c(O)c(NC(=O)c4ccc(O)c(CC=C(C)C)c4)c(=O)oc3c2C)OC1(C)C ?
32.1

Also COc1cc(C2c3cc4c(cc3C(OC3OC5COC(C)OC5C(O)C3O)C3COC(=O)C23)OCO4)cc(OC)c1O (configuration not stated) + Nc1ccc(C#CCN(C(=O)Cc2ncc(C(F)(F)F)cc2C(F)(F)F)c2ccc(F)cc2)nn1 ?
54

Can you handle CCc1cc2c(N3CCc4c(cc(Cn5ccnc5)cc4-c4cn(C)nc4C(F)(F)F)C3=O)cc(C)nc2c(OC)n1 + COC1C(OC(N)=O)C(O)C(Oc2ccc3c(O)c(NC(=O)c4ccc(O)c(CC=C(C)C)c4)c(=O)oc3c2C)OC1(C)C next?
48

Would you mind doing Nc1ccn(C2OC(CO)C(O)C2(F)F)c(=O)n1 (configuration not stated) + Nc1ccc(C#CCN(C(=O)Cc2ncc(C(F)(F)F)cc2C(F)(F)F)c2ccc(F)cc2)nn1 as well?
34.3

Try the molecule CC1COCCN1c1cc(C2(O)CC3CCC(C2)O3)c2cnn(-c3ccn[nH]3)c2n1 (configuration not stated) + Nc1ccc(C#CCN(C(=O)Cc2ncc(C(F)(F)F)cc2C(F)(F)F)c2ccc(F)cc2)nn1
21.9

* * *

System: 883617-216-R-J1-PDC complex spheroid viability
assay: Anticancer human tumor 883617-216-R-J1-PDC cell line growth inhibition [POLQ];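 note: spheroids exposed to compounds for seven days before readout; 100% = DMSO vehicle control viability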
condition.summary: second compound 3.16 µM; first compound 0.00316 µM; stronger effect = lower value
measurement.type: viability, T/C (%)
Provide only the numeric value, understood in %.

# annotated cases, reported viability, T/C shown
1. CCc1c2c(nc3ccc(O)cc13)-c1cc3c(c(=O)n1C2)COC(=O)[C@]3(O)CC + COC1C(OC(N)=O)C(O)C(Oc2ccc3c(O)c(NC(=O)c4ccc(O)c(CC=C(C)C)c4)c(=O)oc3c2C)OC1(C)C	66.8
2. COc1cccc(OCCCN)c1-c1cc(Nc2cnc(C#N)cn2)n[nH]1 + COC1C(OC(N)=O)C(O)C(Oc2ccc3c(O)c(NC(=O)c4ccc(O)c(CC=C(C)C)c4)c(=O)oc3c2C)OC1(C)C	88.2
3. CC[C@@]1(O)C(=O)OCc2c1cc1n(c2=O)Cc2cc3c(CN(C)C)c(O)ccc3nc2-1 + Cc1cccc(N(C)C(=O)C2C(O)CCN2c2nc(C)cc(C(F)(F)F)c2C#N)c1	98
4. CC[C@@]1(O)C(=O)OCc2c1cc1n(c2=O)Cc2cc3c(CN(C)C)c(O)ccc3nc2-1 + Nc1ccc(C#CCN(C(=O)Cc2ncc(C(F)(F)F)cc2C(F)(F)F)c2ccc(F)cc2)nn1	126

Okay, next one:
# query: viability, T/C of entry COc1cccc(OCCCN)c1-c1cc(Nc2cnc(C#N)cn2)n[nH]1 + Cc1cccc(N(C)C(=O)C2C(O)CCN2c2nc(C)cc(C(F)(F)F)c2C#N)c1
91.5
